test system: S. aureus; experiment: Antimicrobial Susceptibility Test by Broth Microdilution, M07-A9 CLSI; assay type: cell-based; conditions: Staphylococcus aureus, S. aureus MO17, Methicillin-sensitive, Table 5
Form field: MIC (one value per entry).
State the answer as a number, implicitly in µg/mL.

1. CCCCCCCCCC1CC(O)=C(C(=O)CC2CCCCC2)C(=O)O1 (stereo not shown)
1
2. CCCCCCCCCC1CC(O)=C(C(=O)CCC)C(=O)O1 (stereo not shown)
2
3. CCCCCCCCCCCC1CC(O)=C(C(=O)CCCC)C(=O)O1 (stereo not shown)
4

Lab note: next molecule to report on.
Give the measured MIC of CCCCCCCCCCCC1CC(O)=C(C(=O)CCC)C(=O)O1 (stereo not shown) .
4
